Entries and their measured AUC of viability dose-response curve follow.
# Test system: P12-Ichikawa
# PROTOCOL DESCRIPTION: AUC of viability dose-response curve (% viability x log10 dose units); higher = less sensitive
# SETTINGS: RPMI 5 mM glucose + 10% dialyzed FBS; 48 h
Format: numeric value only, no unit, no commentary.

Below are worked cases with known answers.
N=C(CCSCc1csc(N=C(N)N)n1)N[S+](N)(=O)[O-]
432
C[C@@H](NC1=CC=CC=C1C(O)=O)C/2=C/C(=C\N3C(=O)/C=C(\N=C23)N4CCOCC4)C
370
COC(=O)Nc1nc2cc(C(=O)c3cccs3)ccc2[nH]1
242
NC(=O)c1cnc(N[C@@H]2CCCC[C@@H]2N)nc1Nc1cccc(-n2nccn2)c1
471
COC(=O)Nc1ccc(-c2nc(N3CCOCC3)c3cnn(C4CCN(C(=O)OC)CC4)c3n2)cc1
331

Lookup: Checklist item: AUC of viability dose-response curve tested on P12-Ichikawa, entry "OC[C@H]1O[C@H](C[C@@H]1O)[N]2C=NC3=C2\N=C/NC[C@H]3O" , value?
Found: 475

Lookup: Hi! What's the reported AUC of viability dose-response curve for "Cn1cc(/C=C/C(=O)c2cccc(F)c2)cc1/C=C/C(=O)NO" on P12-Ichikawa?
Found: 462

Lookup: Observed AUC of viability dose-response curve on P12-Ichikawa for "CC1=NN(c2ccc(C)c(C)c2)C(=O)/C1=N/Nc1cccc(-c2cccc(C(=O)O)c2)c1O" , please.
Found: 426

Lookup: State its AUC of viability dose-response curve on P12-Ichikawa: CC(N[C@H]1C[C@@H]1c1ccccc1)c1ccc2c(c1)OCCO2 (some centres undefined)
Found: 451

Lookup: Identify the measured AUC of viability dose-response curve of "Cl.Cl.Cl.O[C@@H](COc1cccc2ncccc12)CN1CCN([C@@H]2c3ccccc3[C@@H]3[C@H](c4ccccc42)C3(F)F)CC1" for P12-Ichikawa.
Found: 395

Lookup: Given the entry "ClC1=C(N\C2=N\CCN2)C3=NSN=C3C=C1" , what AUC of viability dose-response curve was observed with P12-Ichikawa?
Found: 455

Lookup: Field: AUC of viability dose-response curve (P12-Ichikawa). Entry: "CC/C(=C(/c1ccc(O)cc1)c1ccc(OCCNC)cc1)c1ccccc1"
Found: 405

Lookup: Checklist item: AUC of viability dose-response curve tested on P12-Ichikawa, entry "OC1=CC=C(C=C1)\C2=C\OC3=C(C=CC(=C3)O)C2=O" , value?
Found: 457

Lookup: Lab note: need AUC of viability dose-response curve with P12-Ichikawa for entry COC1CCC(CC1)N(C(=O)C2CCC(C)CC2)C3=C(SC(=C3)\C4=C\CCCC4)C(O)=O (centres undefined) , please look it up.
Found: 450

Lookup: Identify the measured AUC of viability dose-response curve of "C[C@H]1[C@H](NC(=O)/C(=N/OC(C)(C)C(=O)O)c2csc(N)n2)C(=O)N1[S+](=O)([O-])O" for P12-Ichikawa.
Found: 467

Lookup: Under P12-Ichikawa: AUC of viability dose-response curve value of "CC(=O)O[C@H]1C[C@@H]2CC[C@@H]3[C@H](CC[C@@]4(C)[C@H]3C[C@H]([N+]3(C)CCCCC3)[C@@H]4OC(C)=O)[C@@]2(C)C[C@@H]1[N+]1(C)CCCCC1" ?
Found: 465

Lookup: API: value(readout= AUC of viability dose-response curve, system= P12-Ichikawa, query= "Cn1cc(CNCC2CCN(c3ncc(C(=O)NO)cn3)CC2)c2ccccc21" )
Found: 273

Lookup: Param readout= AUC of viability dose-response curve; system= P12-Ichikawa; entry= "C=C(C)[C@@H]1CC[C@]2(C(=O)O)CC[C@]3(C)[C@H](CC[C@@H]4[C@@]5(C)CC[C@H](O)C(C)(C)[C@@H]5CC[C@]43C)[C@@H]12" ; returns value.
Found: 427

Lookup: Lab note: need AUC of viability dose-response curve for CC(C)NCC(O)COc1ccc(COCCOC(C)C)cc1 (centres undefined) on P12-Ichikawa, anyone have it?
Found: 463

Lookup: Provide value of AUC of viability dose-response curve for this record tested with P12-Ichikawa: "O=C(Nc1ccccc1Br)N[C@@H]1CCN(c2ccc(C(F)(F)F)cn2)C1"
Found: 454

Lookup: Recall the recorded AUC of viability dose-response curve for "COC1=CC=CC2=C1C(=NC(=N2)C3=CC=CS3)NN4C(=O)\C=C(C)/C4=O" with P12-Ichikawa and state it.
Found: 297

Lookup: Enter reported AUC of viability dose-response curve observed with P12-Ichikawa for "C[C@H](NC(=O)/C(C#N)=C/c1cccc(Br)n1)c1ccccc1"
Found: 351

Lookup: Can you look up AUC of viability dose-response curve on P12-Ichikawa for CC(C)C(C)/C=C/C(C)C1CCC2C3=CC=C4CC(O)CCC4(C)C3CCC21C (centres undefined) ?
Found: 457

Lookup: // fetch P12-Ichikawa AUC of viability dose-response curve for "O=c1c(-c2ccc(O)cc2)coc2cc(O[C@@H]3O[C@H](CO)[C@@H](O)[C@H](O)[C@H]3O)ccc12"
Found: 470

Lookup: Give P12-Ichikawa AUC of viability dose-response curve for "C[C@](O)(COc1ccc(C#N)cc1)C(=O)Nc1ccc(C#N)c(C(F)(F)F)c1"
Found: 382

Lookup: Find the measured AUC of viability dose-response curve: item "O=C(NCC[S+](=O)([O-])c1ccc(C(F)(F)F)cn1)c1ccc(Cl)cc1" , target or system P12-Ichikawa.
Found: 452

Lookup: Give AUC of viability dose-response curve (P12-Ichikawa) of the following compound: "COc1cc2c(cc1-c1c(C)noc1C)ncc1[nH]c(=O)n([C@H](C)c3ccccn3)c12"
Found: 393

Lookup: Provide value of AUC of viability dose-response curve for this record tested with P12-Ichikawa: "CCCC1=NC(=C2[N]1NC(=N\C2=O)/C3=CC(=CC=C3OCC)[S+]([O-])(=O)N4CCN(CC)CC4)C"
Found: 399
